assay.procedure: in vitro
condition.details: human, hela cells, % viability
measure: viability at 28.5 h, 10 µM (%)
Could you give me the number in %? Just the number is fine.

Past entries and their recorded results:
Nc1ncc(-c2ccco2)nc1-c1ccc(F)c(Cl)c1    106
CC1CN(CC(=O)NC(C)(C)c2ccccc2)CC(C)N1 (stereo not shown)    83.8
O=C(CSc1ccc(Cl)cc1)NNC(=O)c1cccc([N+](=O)[O-])c1    93.5
O=[N+]([O-])c1ccc2c(ccn2C2CC(O)C(CO)O2)c1 (stereo not shown)    95
O=C(Nc1ccccc1N1CCOCC1)c1ccc(OCc2ccccc2)cc1    96.3

viability at 28.5 h, 10 µM for `O=c1cc2ncc(-c3ccncc3)cn2[nH]1` ?
98.3

Look up viability at 28.5 h, 10 µM: O=S(=O)(c1cccc(C(F)(F)F)c1)n1ccc2c(CN3CCCC3)cccc21 [CBK116168T]
111

Given the compound `O=Cc1ccc(-c2nccnc2NS(=O)(=O)c2ccccc2)cc1` , what is its reported viability at 28.5 h, 10 µM?
97.3

What value of viability at 28.5 h, 10 µM has been reported for the following compound? `Nc1ccc(C(=O)Oc2ccc(Oc3ccccc3)cc2)cc1`
90.5

What does the record list as viability at 28.5 h, 10 µM for `Cc1ccccc1Nc1nc(N)nc(CN2CCCC2)n1` ?
102

I would be grateful if you could share the reported viability at 28.5 h, 10 µM for `O=C(CO)N1CC2(CCN(CCc3cccc4ccccc34)CC2)c2ccccc21` .
91.8

Tell me the measured viability at 28.5 h, 10 µM of `CCSc1nnc(Cc2cc(=O)[nH]c(=O)[nH]2)n1-c1ccc(F)cc1` , please.
85.2

Which value of viability at 28.5 h, 10 µM has been reported for `CS(=O)(=O)Nc1nccnc1OC1CCN(CCc2ccccn2)CC1` in the records?
109

Which measured viability at 28.5 h, 10 µM value corresponds to `CC(C)CN1C(=O)COC[C@@H]1[C@H](O)c1ccc(NC(=O)C2CCCCC2)cc1` ?
106

Given the compound `CC(C)C(=O)Nc1nc2c([nH]c(=O)n2[C@H]2C[C@@H](O)[C@@H](CO)O2)c(=O)[nH]1` , what is its reported viability at 28.5 h, 10 µM?
98.4

Consider the compound shown here: `CCOC(=O)N1CCN(C(=O)Nc2ccc3oc(=O)n(C)c3c2)CC1` What is its recorded viability at 28.5 h, 10 µM?
109

What measured viability at 28.5 h, 10 µM goes with `C[C@@H](c1ccccc1)N1C(=O)[C@@H]2CN(C(=O)CC3(CC(=O)O)CCCC3)CCN2C1=O` ?
88.7
